Reference source for all entries: PubChem BioAssay AID1159580

Measured normalized growth, listed per entry for reference.
test: chemical genetic growth profiling, strain panel (AID 1159580);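 also: tested at 20 µM; growth read once vehicle control cultures reached saturation at 30 °C; 1 = growth at the plate median or of vehicle wells; lower values mean less growth of the strain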; settings: S. cerevisiae deletion strains, growth OD, locus YPR167C, strain met16, active compounds read low
Among all 5,500 compounds or so, about 2,000 (36%) were called active. About 18% were inconclusive and are not listed. This is one part of the list.
Note: the reply should be a number with no unit written.

The following compounds have reported results that may help.
Input line: Which value of normalized growth has been reported for COC(=O)c1c(OC)cc2c(c1C)Oc1c(Cl)c(OC(C)=O)c(Cl)c(C)c1C(=O)O2 in the records?
Output line: 0.992

Input line: Also, C=C(C)C1CCC(C)(O)C2CC3OC3(C)C2C1 (centres undefined) please.
Output line: 1.01

Input line: Also, COC(=O)/C(=C1\OC(=O)C(c2ccccc2)=C1O)c1ccccc1 please.
Output line: 0.983

Input line: Also, Oc1cccc(O)c1 please.
Output line: 0.995

Input line: Also, COc1ccc([C@@H]2CC(=O)c3c(O)cc(O[C@@H]4O[C@H](CO[C@H]5O[C@@H](C)[C@H](O)[C@@H](O)[C@H]5O)[C@@H](O)[C@H](O)[C@H]4O)cc3O2)cc1O please.
Output line: 0.972

***
Input line: Which value of normalized growth has been reported for CC(C)=CCc1c2c(c3occ(-c4ccc(O)c(O)c4)c(=O)c3c1O)C=CC(C)(C)O2 in the records?
Output line: 0.739

Input line: Also, NC1=NCCN1CC(=O)O please.
Output line: 0.993

* * *

test: chemical genetic growth profiling, strain panel (AID 1159580); conditions: S. cerevisiae deletion strains, growth OD, locus YLR027C, strain aat2, active compounds read low
Out of some 5,500 compounds screened, about 2,000 (36%) were called active. Inconclusive results (about 18%) are left out. The list shows a part of the results.
Measured normalized growth, listed per entry for reference.
Note: the reply should be a number with no unit written.

Input line: Which value of normalized growth has been reported for CN(C)[C@@H]1C(=O)C(C(=O)NCN2CCCC2)=C(O)[C@@]2(O)C(=O)C3=C(O)c4c(O)cccc4[C@@](C)(O)[C@H]3C[C@@H]12 in the records?
Output line: 0.984

Input line: Also, CN(C)CCCN1c2ccccc2Sc2ccc(Cl)cc21 please.
Output line: 0.0702

Input line: Also, CNCCCC12CCC(c3ccccc31)c1ccccc12 please.
Output line: 0.964

***
Input line: Which value of normalized growth has been reported for CCN1CCN(C(=O)NC(C(=O)N[C@@H]2C(=O)N3[C@@H]2SC(C)(C)[C@@H]3C(=O)O)c2ccccc2)C(=O)C1=O (stereo not given in full) in the records?
Output line: 0.998

Input line: Also, COC(=O)c1c(OC)cc2c(c1C)Oc1c(Cl)c(OC(C)=O)c(Cl)c(C)c1C(=O)O2 please.
Output line: 0.986

Input line: Also, CC12CCC3C(CC3(C)C)C(C)(CCC1=O)O2 (stereo not given) please.
Output line: 1.01

Input line: Also, CNNC please.
Output line: 1.01

Input line: Also, CC(C)c1ccc2c(c1)CCC1C(C)(C(N)=O)CCCC21C (stereo not given) please.
Output line: 0.979

Input line: Also, O=C(O)c1cc(O)c2c(c1)[C@@H]([C@H]1c3cc(C(=O)O)cc(O)c3C(=O)c3c(O[C@H]4O[C@H](CO)[C@@H](O)[C@H](O)[C@H]4O)cccc31)c1cccc(O[C@H]3O[C@H](CO)[C@@H](O)[C@H](O)[C@H]3O)c1C2=O please.
Output line: 1.02

* * *

assay: chemical genetic growth profiling, strain panel (AID 1159580); details: S. cerevisiae deletion strains, growth OD, locus YDR297W, strain sur2, active compounds read low
Out of some 5,500 compounds screened, about 2,000 (36%) were called active. Not shown: some 18% with an inconclusive outcome. Some of the results follow.
Measured normalized growth, listed per entry for reference.
Note: the reply should be a number with no unit written.

The following molecules have reported results that may help.
Input line: Which value of normalized growth has been reported for CC(=O)OCC(=O)[C@@]1(O)[C@H](C)CC2C3CCC4=CC(=O)C=C[C@]4(C)[C@@]3(F)[C@@H](O)C[C@@]21C (stereo partly specified) in the records?
Output line: 0.988

Input line: Also, CS(=O)(=O)Nc1ccc([N+](=O)[O-])cc1Oc1ccccc1 please.
Output line: 0.991

Input line: Also, CC(C)NCC(O)COc1ccc(COCCOC(C)C)cc1 (stereo unspecified) please.
Output line: 1.01

Input line: Also, C[C@H](CCC(=O)O)[C@H]1CCC2C3C(=O)CC4CC(=O)CC[C@]4(C)C3CC(=O)[C@@]21C (stereo partly specified) please.
Output line: 0.981

***
Input line: Which value of normalized growth has been reported for CCCSc1ccc2nc(NC(=O)OC)[nH]c2c1 in the records?
Output line: 1.01

Input line: Also, O=C1NC(O)=NC1(c1ccccc1)c1ccccc1 please.
Output line: 1.02

Input line: Also, CC(=O)O[C@H]1CC[C@@]2(C)C(C[C@@H](OC(C)=O)[C@@]3(C)C4=CC(=O)O[C@@H](c5ccoc5)[C@]4(C)CCC23)C1(C)C (stereo partly specified) please.
Output line: 1.02

* * *

assay: chemical genetic growth profiling, strain panel (AID 1159580); conditions: S. cerevisiae deletion strains, growth OD, locus YLR113W, strain HOG1, active compounds read low
The whole screen tested about 5,500 compounds, of which about 2,000 (36%) were called active. Not shown: some 18% with an inconclusive outcome. The list shows a part of the results.
measured-attribute: normalized growth
Note: the reply should be a number with no unit written.

Input line: Which value of normalized growth has been reported for CC(C)CCCC(C)C1CCC2C3CC(=O)[C@H]4C[C@@H](O)CC[C@]4(C)C3CC[C@]12C (stereo partly specified) in the records?
Output line: 0.986

* * *

assay: chemical genetic growth profiling, strain panel (AID 1159580);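 also: tested at 20 µM; growth read once vehicle control cultures reached saturation at 30 °C; 1 = growth at the plate median or of vehicle wells; lower values mean less growth of the strain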; conditions: S. cerevisiae deletion strains, growth OD, locus YMR125W, strain sto1
Screen size: about 5,500 compounds; about 2,000 (36%) were called active. Not shown: some 18% with an inconclusive outcome. Rule as the data show it: active = normalized growth mostly below about 0.91 (no sharp cut-off); inconclusive = no clear call, values can overlap the other calls; inactive = mostly above about 0.92. The list shows a part of the results.
Would you mind answering with one of these outcomes? label 1 for active, label 0 for inactive

These recorded examples may help you get a feel for the data.
Input line: // outcome(item) with item = CC12CCC(=O)C=C1CCC1C2[C@@H](O)CC2(C)C1CC[C@]2(O)C(=O)COP(=O)(O)O (stereo not given in full)
Output line: label 0

Input line: Also, COc1cc(C(C)=O)cc(OC)c1O please.
Output line: label 0

Input line: Also, CC(=O)Nc1ccc(S(=O)(=O)Nc2onc(C)c2C)cc1 please.
Output line: label 0

***
Input line: // outcome(item) with item = O=C(O)c1ccccc1
Output line: label 0

Input line: Also, CN1CCN(C(=O)OC2c3nccnc3C(=O)N2c2ccc(Cl)cn2)CC1 (stereo not given) please.
Output line: label 0

* * *

test: chemical genetic growth profiling, strain panel (AID 1159580);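 also: tested at 20 µM; growth read once vehicle control cultures reached saturation at 30 °C; 1 = growth at the plate median or of vehicle wells; lower values mean less growth of the strain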; conditions: S. cerevisiae deletion strains, growth OD, locus YBR231C, strain swc5, active compounds read low
Among all 5,500 compounds or so, about 2,000 (36%) were called active. Inconclusive results (about 18%) are left out. The list shows a part of the results.
Measured normalized growth, listed per entry for reference.
Note: the reply should be a number with no unit written.

Input line: Which value of normalized growth has been reported for CC(=O)O[C@H]1CC[C@@]2(C)C(C[C@@H](OC(C)=O)[C@@]3(C)C4=CC(=O)O[C@@H](c5ccoc5)[C@]4(C)CCC23)C1(C)C (some centres undefined) in the records?
Output line: 1.01

Input line: Also, CC(=O)O[C@@H]1CC2C(C)(C)C(=O)C=C[C@]2(C)C2CC[C@]3(C)C(=CC(=O)O[C@H]3c3ccoc3)[C@@]21C (some centres undefined) please.
Output line: 0.998

Input line: Also, C[n+]1ccccc1/C=N/O please.
Output line: 1.02

***
Input line: Which value of normalized growth has been reported for O=C1NC(O)=NC1(c1ccccc1)c1ccccc1 in the records?
Output line: 1.02

* * *

test: chemical genetic growth profiling, strain panel (AID 1159580);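 also: tested at 20 µM; growth read once vehicle control cultures reached saturation at 30 °C; 1 = growth at the plate median or of vehicle wells; lower values mean less growth of the strain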; settings: S. cerevisiae deletion strains, growth OD, locus YMR231W, strain pep5, active compounds read low
Among all 5,500 compounds or so, about 2,000 (36%) were called active. Another 18% or so got no clear call; they are omitted. This is one part of the list.
Rule: normalized growth below 1 gives true (1), anything at or above gives false (0).

These recorded examples may help you get a feel for the data.
Input line: Please let me know if CC(=O)Oc1ccc(O)cc1 shows normalized growth below 1.
Output line: true (1)

Input line: Also, C[C@H](CCC(=O)O)[C@H]1CCC2C3C(=O)CC4CC(=O)CC[C@]4(C)C3CC(=O)[C@@]21C (stereo not given in full) please.
Output line: true (1)

***
Input line: Please let me know if CCCSc1ccc2nc(NC(=O)OC)[nH]c2c1 shows normalized growth below 1.
Output line: false (0)
